Catalogue of molecules with associated Activity
biological target: Peroxisome proliferator-activated receptor alpha (Mus musculus) (UniProt P23204); assay: Agonist activity at mouse PPARalpha receptor in monkey COS7 cells assessed as activation of CAT reporter gene at 150 uM by transactivation assay relative to Wy,14-643; format: functional, cell-based; conditions: COS-7
Sequence (P23204 whole entry): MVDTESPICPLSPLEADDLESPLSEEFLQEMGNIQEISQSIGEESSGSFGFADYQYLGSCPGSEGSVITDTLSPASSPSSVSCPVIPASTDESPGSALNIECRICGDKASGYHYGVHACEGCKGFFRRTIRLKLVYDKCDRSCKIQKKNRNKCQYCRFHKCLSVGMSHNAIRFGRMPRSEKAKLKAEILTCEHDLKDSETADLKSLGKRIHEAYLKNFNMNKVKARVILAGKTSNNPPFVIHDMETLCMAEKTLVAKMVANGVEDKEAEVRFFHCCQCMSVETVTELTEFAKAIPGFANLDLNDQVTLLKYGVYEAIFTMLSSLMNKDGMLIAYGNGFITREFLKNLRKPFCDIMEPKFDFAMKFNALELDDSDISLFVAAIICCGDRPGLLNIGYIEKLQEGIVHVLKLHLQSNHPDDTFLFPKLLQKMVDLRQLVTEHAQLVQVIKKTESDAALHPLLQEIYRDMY

Molecule: CC(C)(Oc1ccc(CCNCC(O)c2ccccc2)cc1)C(=O)O (racemic)
Activity (%): 1.7
//
Molecule: CC(C)(Oc1ccc(CCNC[C@@H](O)c2ccccc2)cc1)C(=O)O
Activity (%): 1.5
//
Molecule: C[C@@H](Oc1ccc(CCNC[C@@H](O)c2ccccc2)cc1)C(=O)O (single isomer, unassigned)
Activity (%): 2
//
Molecule: C[C@H](Oc1ccc(CCNC[C@@H](O)c2ccccc2)cc1)C(=O)O
Activity (%): 1
//
Molecule: CC(Oc1ccc(CCNCC(O)c2ccccc2)cc1)C(=O)O (racemic)
Activity (%): 1.9
//
Molecule: CCOC(=O)C(C)(C)Oc1ccc(Cl)cc1
Activity (%): 11
//
Molecule: C[C@@H](Oc1ccc(CCNC[C@H](O)c2ccccc2)cc1)C(=O)O
Activity (%): 1.5
//
Molecule: CC(C)(Oc1ccc(CCNC[C@H](O)c2ccccc2)cc1)C(=O)O
Activity (%): 1.5
//
Molecule: C[C@H](Oc1ccc(CCNC[C@H](O)c2ccccc2)cc1)C(=O)O (single isomer, unassigned)
Activity (%): 1.8
